Parameter: normalized growth. Scope: all listed entries.
Experiment: chemical genetic growth profiling, strain panel (AID 1159580);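 further: tested at 20 µM; growth read once vehicle control cultures reached saturation at 30 °C; 1 = growth at the plate median or of vehicle wells; lower values mean less growth of the strain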
Conditions: S. cerevisiae deletion strains, growth OD, locus YGL227W, strain vid30, stronger effect = lower value
Screen size: about 5,500 compounds; about 2,000 (36%) were called active. Another 18% or so got no clear call; they are omitted. The list shows a part of the results.
Lab note: jot down the number only; don't add units.

OC/C=C/c1ccc(O)c(O)c1: 1.01
O=C(O)CNCP(=O)(O)O: 1.02
O=C(NC(Cc1cc(=O)[nH]c2ccccc12)C(=O)O)c1ccc(Cl)cc1 (configuration not stated): 1
NC(=O)c1cnccn1: 0.991
C=CCN1CC[C@]23c4c5ccc(O)c4OC2C(=O)CC[C@@]3(O)[C@H]1C5 (some centres not stated): 0.97
O=C(/C=C/c1ccc(O)c(O)c1)O[C@@H]1C[C@](O)(C(=O)O)C[C@@H](O)[C@H]1O: 0.975

Moving on to another compound below.
# query: normalized growth of entry CC(=O)O[C@H]1CC[C@@]2(C)C(=CCC3C2CC[C@]2(C)C(=O)CCC32)C1 (some centres not stated)
1.04

---

Parameter: normalized growth. Scope: all listed entries.
Assay: chemical genetic growth profiling, strain panel (AID 1159580)
Conditions: S. cerevisiae deletion strains, growth OD, locus YER167W, strain BCK2, stronger effect = lower value
About 2,000 (36%) of roughly 5,500 compounds were called active. Not shown: some 18% with an inconclusive outcome. The list shows a part of the results.

Before answering, review these 10 worked examples.
NC(=O)N/N=C\c1ccc([N+](=O)[O-])o1: 1 (inactive)
CC(COc1ccccc1)N(CCCl)Cc1ccccc1 (configuration not stated): 0.991 (inactive)
COc1cc(O)cc(/C=C/c2ccccc2)c1: 0.94 (inactive)
CC(Cc1ccc(O)c(O)c1)(NN)C(=O)O (configuration not stated): 1.01 (inactive)
Nc1c(Br)cc(Br)cc1CNC1CCC(O)CC1 (configuration not stated): 1.02 (inactive)
O=c1ccn([C@@H]2O[C@H](COP(=O)(O)OP(=O)(O)OP(=O)(O)O)[C@@H](O)[C@H]2O)c(=O)[nH]1: 1.02 (inactive)
O=C(O)CNCP(=O)(O)O: 0.999 (inactive)
COc1ccccc1-c1cc(=O)c2c(OC)cccc2o1: 0.996 (inactive)
C[C@H](COc1ccccc1)N[C@H](C)[C@H](O)c1ccc(O)cc1: 0.985 (inactive)
CC[C@]12CCCN3CCc4c(n(c5ccccc45)[C@](O)(C(=O)OC)C1)[C@@H]32: 0.996 (inactive)

# query: normalized growth of entry CC(=O)O[C@H]1C[C@@H](OC(C)=O)C(C)(C)C2C[C@@H](OC(C)=O)[C@]3(C)C(CC[C@@]4(C)[C@H](c5ccoc5)C(=O)[C@H]5O[C@]543)[C@]21C (some centres not stated)
1.01 (inactive)

# query: normalized growth of entry CC1CC2C(C(O)CC3(C)C2CCC3(O)C(=O)COC(=O)CCC(=O)O)C2(C)C=CC(=O)C=C12 (configuration not stated)
1.01 (inactive)

---

Experiment: chemical genetic growth profiling, strain panel (AID 1159580)
Settings: S. cerevisiae deletion strains, growth OD, locus YML124C, strain tub3, stronger effect = lower value
Screen size: about 5,500 compounds; about 2,000 (36%) were called active. Not shown: some 18% with an inconclusive outcome. Some of the results follow.
measured.attribute: normalized growth
Lab note: jot down the number only; don't add units.

Before answering, review these 6 worked examples.
CCCN(CCC)C(=O)C(CCC(=O)O)NC(=O)c1ccccc1 (stereo not drawn): 0.988
COc1ccccc1N1CCNCC1: 1.02
CCN(CC)CCOC(=O)C(Cc1cccc2ccccc12)CC1CCCO1 (stereo not drawn): 1
NCc1ccc(S(N)(=O)=O)cc1: 0.99
CN1CCc2cccc3c2C1Cc1ccc(O)c(O)c1-3 (stereo not drawn): 0.99
COc1ccc(C[C@H](N)C(=O)N[C@@H]2[C@@H](CO)OC(n3cnc4c(N(C)C)ncnc43)[C@@H]2O)cc1 (stereo partly drawn): 1.02

# query: normalized growth of entry "CCn1cc(C(=O)O)c(=O)c2cnc(N3CCCC3)nc21"
0.993

# query: normalized growth of entry CC1(C)CC2C1CCC1(C)OC2(C)CCC1O (stereo not drawn)
1.01

# query: normalized growth of entry "NCCCCN=C(N)N"
0.987

# query: normalized growth of entry "O=C1CN(/N=C\c2ccc([N+](=O)[O-])o2)C(=O)N1"
0.991

---

Experiment: chemical genetic growth profiling, strain panel (AID 1159580)
Conditions: S. cerevisiae deletion strains, growth OD, locus YDR195W, strain ref2
In all, about 5,500 compounds went through this assay and about 2,000 (36%) were called active. Another 18% or so got no clear call; they are omitted. Cut-off read from the data, not from the text of the source: active = normalized growth mostly below about 0.91 (no sharp cut-off); inconclusive = no clear call, values can overlap the other calls; inactive = mostly above about 0.92. Some of the results follow.
Entry note: the call must match one of active, inactive

Solved entries:
C#C[C@]1(O)CCC2C3CCc4cc(OC)ccc4C3CC[C@@]21C (some centres not stated): inactive
CCOC(=O)C(C)(N)Cc1ccc(O)c(O)c1 (configuration not stated): inactive
C=CCc1cc(OC)c2c(c1OC)OCO2: active

So what was the verdict on CCCCC(CC)CN=C(N)NC(N)=NCCCCCCN=C(N)NC(N)=NCC(CC)CCCC (configuration not stated) in this test?
active

So what was the verdict on c1ccc(-c2ccc(C(c3ccccc3)n3ccnc3)cc2)cc1 (configuration not stated) in this test?
active

So what was the verdict on CC(Cc1ccc(O)c(O)c1)(NN)C(=O)O (configuration not stated) in this test?
inactive

So what was the verdict on CCCNC(C)C(=O)Nc1ccccc1C (configuration not stated) in this test?
inactive

---

Experiment: chemical genetic growth profiling, strain panel (AID 1159580);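 further: tested at 20 µM; growth read once vehicle control cultures reached saturation at 30 °C; 1 = growth at the plate median or of vehicle wells; lower values mean less growth of the strain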
Conditions: S. cerevisiae deletion strains, growth OD, locus YLL001W, strain dnm1, stronger effect = lower value
The whole screen tested about 5,500 compounds, of which about 2,000 (36%) were called active. Not shown: some 18% with an inconclusive outcome. This is one part of the list.
measured.attribute: normalized growth
Lab note: jot down the number only; don't add units.

O=C1N=C(O)CN1/N=C\c1ccc(-c2ccc([N+](=O)[O-])cc2)o1: 1

# query: normalized growth of entry COc1cc(C)c2c(c1C=O)Oc1c(c(C)c(O)c3c1C(O)OC3=O)OC2=O (stereo not given)
1.01

# query: normalized growth of entry "NC(=O)N/N=C\c1ccc([N+](=O)[O-])o1"
0.995

# query: normalized growth of entry "COc1ccc(/C=C/c2cc(O)cc(O)c2)cc1"
0.997

# query: normalized growth of entry "O=C1OCCN1/N=C\c1ccc([N+](=O)[O-])o1"
0.978

---

Test: chemical genetic growth profiling, strain panel (AID 1159580);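 further: tested at 20 µM; growth read once vehicle control cultures reached saturation at 30 °C; 1 = growth at the plate median or of vehicle wells; lower values mean less growth of the strain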
Conditions: S. cerevisiae deletion strains, growth OD, locus YJL129C, strain trk1, stronger effect = lower value
Hit rate of the full screen: of about 5,500 compounds, about 2,000 (36%) were called active. Roughly 18% stayed inconclusive and do not appear here. This is one part of the list.
measured.attribute: normalized growth
Lab note: jot down the number only; don't add units.

Before answering, review these 4 worked examples.
NC(=O)c1cc[n+](CC2=C(C(=O)O)N3C(=O)C(NC(=O)C(c4ccccc4)S(=O)(=O)[O-])C3SC2)cc1 (configuration not stated): 0.962
COP(=S)(OC)Oc1ccc(SC)c(C)c1: 0.958
c1ccc(-c2ccc(C(c3ccccc3)n3ccnc3)cc2)cc1 (configuration not stated): 0.102
N[C@@H](CCC(=O)N[C@@H](CCSC(CC(=O)O)C(=O)O)C(=O)NCC(=O)O)C(=O)O (some centres not stated): 0.99

# query: normalized growth of entry "Nc1nc2ncc(CNc3ccc(C(=O)N[C@@H](CCC(=O)O)C(=O)O)cc3)nc2c(=O)[nH]1"
0.993

# query: normalized growth of entry "NC(=O)c1cnccn1"
0.981

# query: normalized growth of entry CC12CCC3C(CC=C4CC(O)CCC43C)C1CCC2=O (configuration not stated)
0.801

# query: normalized growth of entry CC(=O)O[C@H]1CC[C@@]2(C)C(=CCC3C2CC[C@]2(C)C(=O)CCC32)C1 (some centres not stated)
0.939

# query: normalized growth of entry "C=CC1=C(C)/C(=C/c2[nH]c(Cc3[nH]c(/C=C4\NC(=O)C(C)=C4C=C)c(C)c3CCC(=O)O)c(CCC(=O)O)c2C)NC1=O"
0.97

---

Parameter: normalized growth. Scope: all listed entries.
Assay: chemical genetic growth profiling, strain panel (AID 1159580);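 further: tested at 20 µM; growth read once vehicle control cultures reached saturation at 30 °C; 1 = growth at the plate median or of vehicle wells; lower values mean less growth of the strain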
Settings: S. cerevisiae deletion strains, growth OD, locus YML032C, strain rad52, stronger effect = lower value
The campaign covered roughly 5,500 compounds. About 2,000 (36%) were called active. About 18% were inconclusive and are not listed. The list shows a part of the results.
Lab note: jot down the number only; don't add units.

Before answering, review these 2 worked examples.
O=C(O)c1cc(O)c(O)c(O)c1: 1.03
CC12CCC(CC1)C(C)(C)O2: 1.02

Moving on to another compound below.
# query: normalized growth of entry "O=C1OCCN1/N=C\c1ccc([N+](=O)[O-])o1"
0.494

// provenance: PubChem BioAssay AID1159580
